# Tested on: HCC1806
# Procedure Text: Antiproliferative activity against human HCC1806 cells assessed as inhibition of cell proliferation at 2 uM incubated for 24 hrs by SRB assay relative to control
# Assay type: functional
So basically, the class depends on measured inhibition at 2 µM, and the ranges are low class: < 10%; middle class: ≥ 10% and < 50%; high class: ≥ 50%

[[record]]
mol = "COc1cc(Nc2nc(N3CCNCC3)ncc2OC)ccc1NC(=O)c1cccc(Br)n1"
label_value = "high class"

[[record]]
mol = "COc1cnc(N2CCNCC2)nc1Nc1cc(C)c(NC(=O)c2cccc(Br)n2)cc1C"
label_value = "low class"


Task: Which class holds COc1cc(Nc2nc(N3CCNCC3)ncc2Br)ccc1NC(=O)c1cccc(Br)n1 ?
Output: middle class

Task: Which class holds COc1cnc(N2CCNCC2)nc1Nc1ccc(NC(=O)c2cccc(Br)n2)cc1C(F)(F)F ?
Output: high class

Task: Which class holds COc1cc(Nc2nc(N3CCNCC3)ncc2Cl)ccc1NC(=O)c1cccc(Br)n1 ?
Output: middle class

Task: Which class holds COc1cnc(N2CCNCC2)nc1Nc1ccc(NC(=O)c2cccc(Br)n2)cc1C#N ?
Output: middle class

Task: Which class holds COc1cc(NC(=O)c2cccc(Br)n2)ccc1Nc1nc(N2CCNCC2)ncc1OC ?
Output: middle class

Task: Which class holds COc1cnc(N2CCNCC2)nc1Nc1ccc(NC(=O)c2cccc(Cl)n2)cc1C(F)(F)F ?
Output: high class

Task: Which class holds COc1cc(Nc2nc(N3CCNCC3)ncc2SC)ccc1NC(=O)c1cccc(Br)n1 ?
Output: low class

###

# Tested on: 184B5
# Procedure Text: Cytotoxicity against human 184B5 cells assessed as reduction in cell viability at 2 uM incubated for 24 hrs by SRB assay
# Type: toxicity, cell-based
# Measurement Parameters: 184b5, 24 h
Measurement Type: Activity

Solved entries (count: 5):
[[record]]
mol = "COc1cc(Nc2nc(N3CCNCC3)ncc2Cl)ccc1NC(=O)c1cccc(Br)n1"
result = "Toxic"

[[record]]
mol = "COc1cnc(N2CCNCC2)nc1Nc1ccc(NC(=O)c2cccc(Br)n2)cc1C(F)(F)F"
result = "Non-Toxic"

[[record]]
mol = "COc1cc(Nc2nc(N3CCNCC3)ncc2SC)ccc1NC(=O)c1cccc(Br)n1"
result = "Toxic"

[[record]]
mol = "COc1cnc(N2CCNCC2)nc1Nc1ccc(NC(=O)c2cccc(Br)n2)cc1C#N"
result = "Toxic"

[[record]]
mol = "COc1cnc(N2CCNCC2)nc1Nc1ccc(NC(=O)c2cccc(Cl)n2)cc1C(F)(F)F"
result = "Non-Toxic"


Documented Activity of COc1cnc(N2CCNCC2)nc1Nc1cc(C)c(NC(=O)c2cccc(Br)n2)cc1C : Toxic

Documented Activity of COc1cc(Nc2nc(N3CCNCC3)ncc2OC)ccc1NC(=O)c1cccc(Br)n1 : Non-Toxic

Documented Activity of COc1cc(NC(=O)c2cccc(Br)n2)ccc1Nc1nc(N2CCNCC2)ncc1OC : Toxic

Documented Activity of COc1cc(Nc2nc(N3CCNCC3)ncc2Br)ccc1NC(=O)c1cccc(Br)n1 : Non-Toxic
